These measurements were taken from paper PMC12040169.

- assay.overview: in vitro
- run.parameters: human, hela cells, % viability
value.type: viability at 28.5 h, 10 µM (%)
Supply the numeric figure in %, leaving out any unit text.

O=C(c1ccoc1)N1CCC2(CCCN(Cc3ccc4ccccc4c3)C2)C1 (centres unmarked) [CBK132811]    90.1
O=C1NC2CS(=O)(=O)CC2N1Cc1ccccc1 (centres unmarked) [CBK009306]    85.7
O=C(NCc1cccnc1)N1CCN(c2ccccc2)CC1 [CBK155178]    98.2

query: # get_value(readout='viability at 28.5 h, 10 µM', item= CN1CCc2c(sc3ncn4nc(-c5ccncc5)nc4c23)C1 [CBK288540] )
result: 96.2

query: Which viability at 28.5 h, 10 µM value is on record for Cc1cccc(Cl)c1OCC(O)CNCCc1ccccc1 (centres unmarked) [CBK003076] ?
result: 102

---

- assay.overview: in vitro
- run.parameters: human, hela cells, % viability
Label criterion met when viability at 28.5 h, 10 µM < 90%; otherwise criterion not met.

Some solved cases for reference:
CN(Cc1ccc(F)cc1F)C(=O)Cn1nc2n(c1=O)CCCCC2 [CBK304598]    criterion met
CNC(=O)c1cccc(NC(=O)c2cc(Br)cnc2NCC2CC2)c1 [CBK076380]    criterion not met
COC(=O)CC(NC(=O)c1cccc(NC(C)=O)c1)c1cccs1 (centres unmarked) [CBK304537]    criterion met

# evaluate next
query: Below 90% on viability at 28.5 h, 10 µM? Entry CCN1CCN(C(=O)c2cccn2C)CC1 [CBK200248]
result: criterion met

---

- assay.overview: in vitro
- run.parameters: human, hela cells, % viability
# maps each entry to its viability at 28.5 h, 10 µM
Give just the number in %; leave the unit off.

CC(C)(C)c1ccccc1[S+]([O-])c1cc2c(N3CCNCC3)nccc2s1 (stereo not shown) [CBK200018C]    103
NS(=O)(=O)c1ccc(NS(=O)(=O)c2ccc(NC(=O)Nc3ccc(Cl)cc3)cc2)cc1    90.9
O=C(Nc1cccc2c(NC(=O)N3CCCCC3)cccc12)N1CCCCC1    109
CNC(=O)C1(Cc2cccc(-c3cccs3)c2)CCN(C(=O)CCc2ccccc2)CC1    90.4

query: Consider the molecule shown here: "O=C(NCc1c(Cl)cccc1Cl)N1CCN(c2ccccc2)CC1" What is its recorded viability at 28.5 h, 10 µM?
result: 98.5

query: Which viability at 28.5 h, 10 µM reading was recorded for the molecule CN(C)CCN(CC#Cc1ccccc1)CC#Cc1ccccc1 [CBK265035C] ?
result: 116

---

- assay.overview: in vitro
- run.parameters: human, hela cells, % viability
Binarize viability at 28.5 h, 10 µM at 90%; below is Fulfilled, at or above is Not fulfilled.

// known answers, use as guide
O=C1NN(c2ccc(F)c(Cl)c2)C(=O)/C1=C/c1ccc(-c2ccc(Cl)cc2)o1    Not fulfilled
O=C(Cc1nc2ccccc2[nH]1)N1CCOCC1    Not fulfilled
Cc1cccc(NC(=O)c2cc(NC(=O)C3CCCCC3C(=O)O)ccc2N2CCCCC2)c1 (centres unmarked)    Not fulfilled

query: Lab note: confirm whether the reported viability at 28.5 h, 10 µM for this molecule is below 90%, equality not counting. molecule: COc1cc2c3c([nH]c2cc1F)C1(CCN(CCOc2ccccc2)C1)NCC3 (centres unmarked) [CBK115687T]
result: Fulfilled

query: Below 90% on viability at 28.5 h, 10 µM? Entry "NC(=O)c1csc(-c2ccc(F)cc2F)n1"
result: Fulfilled

---

- assay.overview: in vitro
- run.parameters: human, hela cells, % viability
We begin with a simple list: items and their reported viability at 28.5 h, 10 µM.
Number in %, nothing else.

These solved cases illustrate the format of a correct answer.
CCc1c(C)nc2ccccc2c1SCCC(=O)O [CBK116382C]    118
Cc1[nH]c2ccccc2c1/C=N/NC(=O)C1COc2ccccc2O1 (centres unmarked)    90.9
O=C(O)C(CC1COc2ccccc2O1)C(=O)O (centres unmarked)    89.6

query: Could you share which viability at 28.5 h, 10 µM value was measured for "CCCc1cc(C(=O)N2CCCN(Cc3cnn(CC)c3)CC2)[nH]n1" ?
result: 92.3

query: # lookup: viability at 28.5 h, 10 µM of "O=C(NCc1ccc(-c2csnn2)cc1)c1cccc(C(F)(F)F)c1"
result: 87.2

---

Measured viability at 28.5 h, 10 µM of individual entries
- assay.overview: in vitro
- run.parameters: human, hela cells, % viability
Unit % implied. Number only.

O=C(Nc1cc(NC(=O)C2C3C=CC(C3)C2C(=O)O)ccc1Cl)c1cccs1 (stereo not shown)    89.6
COCCOc1nc2ccccc2nc1C    103
O=C(NCC1CCCO1)C1CCN(C(=O)c2cccc(F)c2)CC1 (stereo not shown)    90.5
Cc1ccc(C(=O)NCCCN2CCC3(CC2)OCCc2c3[nH]c3ccccc23)cc1    85.5
Cc1cn(CC(=O)N2CCN(c3ncccn3)CC2)c(=O)[nH]c1=O    105

query: I am curious: what viability at 28.5 h, 10 µM value has been reported for CCOc1ccc(C(CC(=O)O)C(=O)O)cc1 (stereo not shown) ?
result: 96.7

query: For "Nc1ncc(-c2cccc(O)c2)nc1N1CCOCC1" , what is its reported viability at 28.5 h, 10 µM?
result: 100

query: # lookup: viability at 28.5 h, 10 µM of Cc1cc(C)cc(N(C(C)C(=O)Nc2ccccc2-c2ccccc2)S(C)(=O)=O)c1 (stereo not shown)
result: 101

query: Would you mind telling me what viability at 28.5 h, 10 µM value was observed for "CC(=O)c1ccc(NC(=O)N[C@H]2CO[C@H]3[C@@H]2OC[C@H]3OCC(N)=O)cc1" ?
result: 117

---

Listing: viability at 28.5 h, 10 µM of selected compounds
- assay.overview: in vitro
- run.parameters: human, hela cells, % viability
Value expressed in %; do not type the unit.

Guide cases for viability at 28.5 h, 10 µM, answers given:
Cn1c(CN2CCN(C3CCCCC3)C(=O)C2)nc2ccccc21 [CBK281893]    90.9
NS(=O)(=O)c1ccc(CCNC(=O)c2ccc([N+](=O)[O-])cc2)cc1 [CBK263773]    104
COc1ccc(-n2nc([N+](=O)[O-])c(NCc3ccccn3)[n+]2[O-])cc1 [CBK268430]    96.3
CCc1nccn1CCC(=O)Nc1ccc2c(c1)CCN2C(C)=O [CBK281446]    90.9
COc1ccccc1OCc1ccc(Cl)s1 [CBK002782]    82.7
Cc1ccc(S(=O)(=O)NC(CC(=O)Nc2ccc(Br)cc2)c2ccccc2)cc1 (stereo not drawn) [CBK265110]    93.3
O=C(CSc1ncnc2ccccc12)NCc1ccco1 [CBK287509]    98.8
O=C1N[C@]2(Cc3ccccc31)CN(Cc1ccccc1)C[C@H]2CO [CBK284743]    92.1

query: GET /values?readout=viability at 28.5 h, 10 µM&item= Cc1ccn(CCC(=O)N2CCCC(c3cc4cccnc4[nH]3)C2)n1 (stereo not drawn) [CBK284927]
result: 99.7

---

// reported viability at 28.5 h, 10 µM per item
- assay.overview: in vitro
- run.parameters: human, hela cells, % viability
Express it in %; write the number only.

Look over these answered cases.
COc1ccc(-c2cc(C(=O)Nc3cccc(C(=O)O)c3)cnc2-c2ccc(F)cc2)cn1    91.3
CCOc1ncccc1NC(=O)C(C)n1cccn1 (stereo not drawn)    105
Cc1cc(COC(=O)NCc2ccncc2)cc(C)n1    99.4
O=C(NC(N1CCCCC1)C(Cl)(Cl)Cl)NC(N1CCCCC1)C(Cl)(Cl)Cl (stereo not drawn)    98.2
O=C(O)[C@@H]1CCCN1c1nc(O)cc(C(F)(F)F)n1    81.3
CSc1nsc(SCC(=O)Nc2ccc3c(c2)OCO3)n1    88.6
Cc1cc(C(F)(F)F)nc(CCNC(=O)N(Cc2ccsc2)C2CC2)n1    107
O=C(NCCN1CCCC1)c1cnc2cc(C(F)(F)F)ccc2c1O    104

Moving on to the next compound.
query: Reported viability at 28.5 h, 10 µM for O=C(O)CCC(=O)NN1C(=O)c2ccccc2NC1c1ccc(F)cc1 (stereo not drawn) : what is it?
result: 84

---

- assay.overview: in vitro
- run.parameters: human, hela cells, % viability
value.type: viability at 28.5 h, 10 µM
Respond with the figure and its unit, in that order.

c1coc(-c2cc3ncc4c(n3n2)CC2CCC4N2)c1 (stereo not shown)    84.7%
COc1ccccc1-c1nnc2sc(-c3cnccn3)nn12    100%
O=[N+]([O-])c1ccc(-c2nc(-c3ccccc3)c(-c3ccc4oc5ccc(-c6[nH]c(-c7ccc([N+](=O)[O-])cc7)nc6-c6ccccc6)cc5c4c3)[nH]2)cc1    93.9%
COc1ccc(-c2nnc(SCC(=O)NN)n2-c2ccccc2)cc1    87.3%
O=C(NN=C1CCCCCCCCCCC1)c1cc2ccccc2cc1O    102%
COc1ccc(C2C(C(=O)c3ccco3)=C(O)C(=O)N2CCN2CCOCC2)cc1OC (stereo not shown)    98.8%
C=Cn1ncc(CN2CCc3[nH]c4ccc(OCC)cc4c3C2)c1C    89.7%
COc1cc(/C=N\NC(=O)CN2CCN(C)CC2)cc2c1OCO2    109%

query: Entry "CCCCCC(=O)Nc1c(C)cc(Br)cc1C" has what viability at 28.5 h, 10 µM?
result: 116%

query: For "CCOc1ccc(NC(=O)COc2ccccc2/C=C/C(=O)O)cc1" , what is its reported viability at 28.5 h, 10 µM?
result: 96.6%

query: Name the recorded viability at 28.5 h, 10 µM for "C=CCOc1c(CNc2cccc(C(=O)O)c2)cccc1OC" .
result: 95.6%

query: # lookup: viability at 28.5 h, 10 µM of NC(=O)C1CN(C(=O)CN2CCCc3ccccc32)c2ccccc2O1 (stereo not shown)
result: 93.4%

query: I am curious: what viability at 28.5 h, 10 µM value has been reported for "CCOC(=O)N1CCC(NC(=O)N(CCN(C)C)Cc2ccccc2)CC1" ?
result: 109%

query: Report viability at 28.5 h, 10 µM for "OCCN1CCN(CCCc2ccccc2)CC1" please.
result: 86%

query: I'd like to know its viability at 28.5 h, 10 µM. The molecule in question is "COc1ccc(N2CCN(c3cncc(-c4cccc(N)c4)n3)CC2)cc1OC"
result: 94.3%

query: Please look up its viability at 28.5 h, 10 µM: O=C(CCS(=O)(=O)c1ccccc1)Nc1ccc(N2CCNCC2)c2ccccc12 [CBK028408T]
result: 92.6%

query: Name the recorded viability at 28.5 h, 10 µM for "O=C(Cc1ccc(Cl)c(Cl)c1)N1CCN(c2ncccn2)CC1" .
result: 98%

query: Given "COc1ccc(Oc2cc3n(c(=O)n2)CCc2cc(OC)c(OC)cc2-3)cc1" , state its recorded viability at 28.5 h, 10 µM.
result: 86.1%

query: Entry under review: Cc1ncccc1C(=O)N1CCC2(CCc3ccccc3C(=O)N2)C1 (stereo not shown) . Reported viability at 28.5 h, 10 µM?
result: 108%
